Tested on: HOP-62 NSCLC
Experiment: NCI-60 one-dose screen, 48 h
Settings: 10 µM
Compounds without any hit were thinned out: in the full panel of roughly 83,000, 20% have a hit. Active and inactive are the calls of the source. The calls were made as follows: active = growth percent below 10; inactive = the rest.
Respond only with the outcome that fits, drawn from active, inactive

Query: recorded result category for `COCCOCCOCCOc1ccc(-n2cc(-c3ccc(O[C@H]4O[C@@H]5OC6(C)CC[C@H]7[C@H](C)CC[C@@H]([C@H]4C)[C@@]57OO6)cc3)nn2)cc1` in this test
inactive

Query: recorded result category for `COC(=O)C[C@](O)(CCCC(C)C)C(=O)O[C@H]1C(OC)=C[C@@]23CCCN2CCc2cc4c(cc2[C@@H]13)OCO4` in this test
inactive

Query: recorded result category for `N#C[Se]CC(=O)Nc1cccc(C(F)(F)F)c1` in this test
active

Query: recorded result category for `C[C@H]1[C@H](OC(=O)CCC(=O)N(CCCc2cn(-c3ccc(CN4CCOCC4)cc3)nn2)CCNc2ccnc3cc(Cl)ccc23)O[C@@H]2OC3(C)CC[C@H]4[C@H](C)CC[C@@H]1[C@@]24OO3` in this test
inactive

---

Test system: MOLT-4 leukemia
Assay: NCI-60 one-dose screen, 48 h
Conditions: 10 µM
Experimental: Growth inhibition of the MOLT-4 human tumor cell line is measured as a screen for anti-cancer activity. Cells are grown in 96 well plates and exposed to the test compound for 48 hours. Compounds are tested at a single concentration, which is 10^-5 M for most compounds. The reported endpoint is percent growth (GI% or GIPRCNT), where numbers from 0 - 100% represent growth inhibition, and numbers from -100% - 0 represent cell death. For example, a value of 40 represents 60% growth inhibition. […]
This is part of a sample that, as a whole, favours compounds with a hit. Of some 83,000 tested, about 20% had one in any assay. Calls of active or inactive are those of the source. Rule for the calls: active = growth percent below 10; inactive = the rest.
Respond only with the outcome that fits, drawn from 1 for active, 0 for inactive

Query: recorded result category for `COCCOCCOCCOc1ccc(-n2cc(-c3ccc(O[C@H]4O[C@@H]5OC6(C)CC[C@H]7[C@H](C)CC[C@@H]([C@H]4C)[C@@]57OO6)cc3)nn2)cc1` in this test
0

Query: recorded result category for `Cc1ccc2[nH]c(=S)n(-c3ccc(F)cc3)c(=O)c2c1` in this test
0

Query: recorded result category for `C[C@H]1[C@H](OC(=O)CCC(=O)Nc2cnccn2)O[C@@H]2OC3(C)CC[C@H]4[C@H](C)CC[C@@H]1[C@@]24OO3` in this test
0

Query: recorded result category for `O=C(/C=C/c1ccc(F)cc1)c1nc2ccccc2n1Cc1ccc(Br)cc1` in this test
1

Query: recorded result category for CC(=C\C(=O)Oc1ccc2c3c1OC1C(O)CCC4(O)C(C2)N(CC2CCC2)CCC314)/C=C1\CCCc2ccccc21 (stereo unspecified) in this test
0

Query: recorded result category for `C=CC[Se]C(=O)c1cncc(C(=O)[Se]CC=C)c1` in this test
1

Query: recorded result category for `O=C(/C=C/c1ccco1)c1nc2ccccc2n1Cc1ccc(Br)cc1` in this test
1

Query: recorded result category for `CC(=O)Oc1ccccc1C(=O)[Se]C(=NC(C)C)NC(C)C` in this test
1

Query: recorded result category for `O=C(/C=C/c1ccc(Cl)cc1)c1nc2ccccc2n1Cc1ccc(Br)cc1` in this test
1

Query: recorded result category for `CN(C)CCc1cn(C2CCC2)c2cccc(O)c12` in this test
0

Query: recorded result category for `CC12CCC3(CCC(=O)NCCCNc4ccnc5cc(Cl)ccc45)[C@@](C)(OO[C@]3(C)O1)O2` in this test
1
